- test target: human FXR (Homo sapiens)
- Sequence (Q96RI1 1-486): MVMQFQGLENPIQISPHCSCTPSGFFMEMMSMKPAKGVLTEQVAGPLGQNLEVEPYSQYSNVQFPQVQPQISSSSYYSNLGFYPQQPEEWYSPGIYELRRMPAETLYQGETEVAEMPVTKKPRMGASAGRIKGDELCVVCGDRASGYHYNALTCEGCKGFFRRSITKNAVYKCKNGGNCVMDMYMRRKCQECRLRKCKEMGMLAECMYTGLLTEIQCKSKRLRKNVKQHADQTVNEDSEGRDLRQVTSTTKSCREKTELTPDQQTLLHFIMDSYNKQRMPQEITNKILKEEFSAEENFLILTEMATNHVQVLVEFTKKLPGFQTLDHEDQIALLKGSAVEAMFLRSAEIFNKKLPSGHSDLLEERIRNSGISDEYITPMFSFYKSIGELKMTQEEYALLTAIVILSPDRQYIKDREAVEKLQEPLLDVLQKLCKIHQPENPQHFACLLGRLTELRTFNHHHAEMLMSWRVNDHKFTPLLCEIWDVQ
- Sequence (P19793 1-462 partner): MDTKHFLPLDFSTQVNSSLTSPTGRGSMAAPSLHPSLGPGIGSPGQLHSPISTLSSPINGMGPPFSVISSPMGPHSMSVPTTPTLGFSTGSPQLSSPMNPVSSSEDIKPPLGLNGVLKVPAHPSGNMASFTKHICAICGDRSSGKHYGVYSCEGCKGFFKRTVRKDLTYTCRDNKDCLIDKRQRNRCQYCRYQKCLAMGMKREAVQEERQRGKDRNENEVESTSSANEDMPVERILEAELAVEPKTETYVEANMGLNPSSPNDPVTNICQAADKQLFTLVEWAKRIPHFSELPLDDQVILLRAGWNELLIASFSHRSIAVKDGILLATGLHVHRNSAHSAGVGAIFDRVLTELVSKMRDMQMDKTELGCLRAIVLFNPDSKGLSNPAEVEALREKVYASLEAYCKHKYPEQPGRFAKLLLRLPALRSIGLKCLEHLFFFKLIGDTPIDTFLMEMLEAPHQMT
- method: Full-length FXR transactivation (reporter gene) assay in HeLa cells
- condition notes: full-length reporter gene assay, HeLa cells; mean ± SEM, n ≥ 3; read-out: hFXR: EC50
Mark each entry TRUE if its EC50 sits below 400 nM, and FALSE for all others.

Use these answered entries as a reference point.
Cc1ccc(C(=O)Nc2ccc(C)c(Nc3nccc(-c4cccnc4)n3)c2)cc1 | TRUE
CS(=O)(=O)O.CS(=O)(=O)O.CS(=O)(=O)O.CS(=O)(=O)O.Cc1ccc(NC(=O)c2ccccc2)cc1Nc1nccc(-c2cccnc2)n1.Cc1ccc(NC(=O)c2ccccc2)cc1Nc1nccc(-c2cccnc2)n1.O | FALSE
Cc1ccc(NC(=O)c2ccc(-c3ccccc3)cc2)cc1Nc1nccc(-c2cccnc2)n1 | TRUE
CCc1ccc(C(=O)Nc2ccc(C)c(Nc3nccc(-c4cccnc4)n3)c2)cc1.CS(=O)(=O)O.CS(=O)(=O)O.O | TRUE
Cc1ccc(N)cc1Nc1nccc(-c2cccnc2)n1 [compound 17, reference compound] | FALSE
Cc1ccc(NC(=O)c2ccc(C(C)(C)C)cc2)cc1Nc1nccc(-c2cccnc2)n1 | FALSE
CS(=O)(=O)O.CS(=O)(=O)O.CS(=O)(=O)O.CS(=O)(=O)O.Cc1ccc(NC(=O)c2ccc3ccccc3c2)cc1Nc1nccc(-c2cccnc2)n1.Cc1ccc(NC(=O)c2ccc3ccccc3c2)cc1Nc1nccc(-c2cccnc2)n1.O.O.O | FALSE
CS(=O)(=O)O.CS(=O)(=O)O.CS(=O)(=O)O.CS(=O)(=O)O.Cc1ccc(NC(=O)c2ccc(Cl)cc2)cc1Nc1nccc(-c2cccnc2)n1.Cc1ccc(NC(=O)c2ccc(Cl)cc2)cc1Nc1nccc(-c2cccnc2)n1.O.O.O | TRUE

Prompt: Is EC50 strictly under 400 nM for the entry `Cc1ccc(NC(=O)c2ccncc2)cc1Nc1nccc(-c2cccnc2)n1` ?
Completion: FALSE

Prompt: Is EC50 strictly under 400 nM for the entry `COc1ccc(C(=O)Nc2ccc(C)c(Nc3nccc(-c4cccnc4)n3)c2)cc1` ?
Completion: FALSE
